Target: Adenosine receptor A2a (Homo sapiens, UniProt P29274)
Sequence (P29274 whole entry): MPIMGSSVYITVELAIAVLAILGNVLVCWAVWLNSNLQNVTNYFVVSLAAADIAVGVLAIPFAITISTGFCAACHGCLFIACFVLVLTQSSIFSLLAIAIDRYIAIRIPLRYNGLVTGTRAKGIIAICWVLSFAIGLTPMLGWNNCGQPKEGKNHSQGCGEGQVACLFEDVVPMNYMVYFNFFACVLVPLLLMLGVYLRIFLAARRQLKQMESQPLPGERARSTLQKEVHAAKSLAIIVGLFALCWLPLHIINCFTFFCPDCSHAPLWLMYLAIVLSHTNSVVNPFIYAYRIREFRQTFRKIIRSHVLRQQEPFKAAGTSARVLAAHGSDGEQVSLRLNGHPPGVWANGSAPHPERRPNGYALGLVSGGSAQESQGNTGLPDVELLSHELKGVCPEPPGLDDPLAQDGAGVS
Assay: Displacement of [3H]ZM241385 from adenosine A2A receptor in human HeLa cells at 10 uM after 30 mins
Assay type: cell-based
Below, each entry is listed with its recorded inhibition.
Give the quantity in %, number only.

Answered cases to consult:
| compound | inhibition [%] |
| --- | --- |
| CC1=C(C(=O)OC(C)C)C(c2ccoc2)NC(=S)N1 (racemic) | 33 |
| CC1=C(C(=O)OC(C)C)C(c2ccoc2)NC(=O)N1C (racemic) | 2 |
| CC1=C(C(=O)OC(C)C)C(c2cccs2)NC(=O)N1C (racemic) | 24 |
| CC1=C(C(=O)OC(C)C)C(c2ccsc2)NC(=O)N1 (racemic) | 25 |

# value lookup — system Adenosine receptor A2a (Homo sapiens, UniProt P29274), readout inhibition, item CC1=C(C(=O)OC(C)C)C(c2ccoc2)NC(=O)N1 (racemic)
26
